Measured On: soluble guanylate cyclase (sGC) endogenously expressed in HEK293 cells (Homo sapiens, UniProt Q02108+Q02153)
Construct: endogenously expressing soluble guanylate cyclase (sGC); endogenous in cells
Sequence (Q02153 1-619): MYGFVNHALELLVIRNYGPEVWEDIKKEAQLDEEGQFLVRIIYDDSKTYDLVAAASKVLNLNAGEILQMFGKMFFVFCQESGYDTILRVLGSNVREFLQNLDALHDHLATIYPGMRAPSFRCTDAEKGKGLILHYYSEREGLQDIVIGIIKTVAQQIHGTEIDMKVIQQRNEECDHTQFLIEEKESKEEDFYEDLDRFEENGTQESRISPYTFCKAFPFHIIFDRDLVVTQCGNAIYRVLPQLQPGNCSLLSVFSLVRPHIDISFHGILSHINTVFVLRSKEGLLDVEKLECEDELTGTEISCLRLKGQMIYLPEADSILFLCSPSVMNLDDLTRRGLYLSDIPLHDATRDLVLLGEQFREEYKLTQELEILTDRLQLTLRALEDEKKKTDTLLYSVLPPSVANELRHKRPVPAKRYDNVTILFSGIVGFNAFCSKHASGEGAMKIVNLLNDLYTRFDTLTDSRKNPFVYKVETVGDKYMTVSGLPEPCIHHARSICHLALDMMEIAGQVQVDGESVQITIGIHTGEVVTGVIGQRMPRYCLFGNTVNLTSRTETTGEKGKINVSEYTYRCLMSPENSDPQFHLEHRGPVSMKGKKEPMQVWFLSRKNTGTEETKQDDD
Sequence (Q02108 1-690): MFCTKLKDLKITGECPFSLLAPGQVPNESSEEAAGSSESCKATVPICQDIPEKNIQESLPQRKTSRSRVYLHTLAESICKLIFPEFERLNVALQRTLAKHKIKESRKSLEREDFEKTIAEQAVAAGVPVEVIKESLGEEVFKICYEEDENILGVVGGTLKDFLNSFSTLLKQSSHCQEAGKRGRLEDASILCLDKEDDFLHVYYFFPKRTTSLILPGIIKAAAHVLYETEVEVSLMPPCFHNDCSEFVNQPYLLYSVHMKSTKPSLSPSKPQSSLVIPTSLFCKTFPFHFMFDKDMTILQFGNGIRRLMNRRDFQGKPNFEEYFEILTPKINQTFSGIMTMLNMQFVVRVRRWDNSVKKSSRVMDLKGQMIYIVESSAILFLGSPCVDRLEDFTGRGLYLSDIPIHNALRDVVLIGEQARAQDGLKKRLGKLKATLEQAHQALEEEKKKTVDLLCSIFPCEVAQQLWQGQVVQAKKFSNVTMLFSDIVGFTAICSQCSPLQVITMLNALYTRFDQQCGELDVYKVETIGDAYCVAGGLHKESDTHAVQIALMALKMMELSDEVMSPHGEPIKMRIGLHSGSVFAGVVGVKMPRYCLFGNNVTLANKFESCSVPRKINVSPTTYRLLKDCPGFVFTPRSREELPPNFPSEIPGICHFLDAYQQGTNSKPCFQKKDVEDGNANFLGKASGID
Assay Explanation: sGC-HEK-cGMP assay with LC/MS detection (whole cell)
Condition Notes: 10 μM DETA-NONOate, 20 min, concentration eliciting 50% of high control response (30 μM Compound Y), read-out: sGC_HEK_LC MS EC50 Abs
Measure Name: EC50

Some solved cases for reference:
COc1cc(-c2ncc(F)c(N3CC(C)C(C(=O)O)C3)n2)nn1Cc1ccccc1F (stereo not shown) [Compound I-36] ... ≥ 1 µM
COc1cc(-c2ncc(F)c(NCCCCC(=O)O)n2)nn1Cc1ccccc1F [Compound I-32] ... 0.101 to 1 µM
COc1cc(-c2nnc3c(n2)NC(=O)C3(C)C)nn1Cc1ccccc1F [Compound I-16] ... 0.101 to 1 µM

Okay, next one:
State the recorded EC50 for this entry: CC1(C(=O)NC2CC2)C(=O)Nc2nc(-c3cc(OC(F)F)n(CCC(F)(F)C(F)(F)F)n3)nc(N)c21 (stereo not shown) [Compound I-50]
≥ 1 µM

From: patent US20210214364A1
